- Assayed target: T1, full-length spike protein of SARS-CoV-2 (Wuhan strain) (SARS-CoV-2 (Wuhan strain), UniProt P0DTC2 14-1273)
- T1 construct: whole, on cells; Expressed in 293T cells
- Method: ACE2 competition, spike on 293T cells, antibody 4 µg/mL
# binding amount (%) of ACE2 protein annotations
Value expressed in %; do not type the unit.

Ab326 (antibody, V domains shown) VH: EVQLVESGGGVVQPGRSLRLSCAASGFTFSHYPMHWVRQAPGRGLEWVAVISYDGSNQHYVDSVKGRFTISRDNSKNTLYLQMNSLRAEDTAVYFCASLITMIRGVPDYWGQGTLVTVSS VL: DIQMTQSPSSLSASVGDRVTITCRASQSISNYLNWYQQKPGKAPNLLIFAASSLQSGVPSRFSGSGSGTEFTLTISSLQPEDFAAYYCLQTYSTPRTFGQGTRLEIK
0.2

Now for a further binder.
Recorded binding amount (%) of ACE2 protein for Ab830 (antibody, V domains shown) VH: QVQLVQSGAEVKKPGSSVKVSCKTSGGTFTNYTISWVRQAPGQGLEWMGRIIPIFDIVNYAQKFQGRVTITADKSTSTTYMELSSLRSEDTAVYYCARDGVLYDTSGYLYDAFDIWGQGTMVTVSS VL: DIQMTQSPSSLSASVGDRVTITCRASQGINNYLAWFQQKPGKAPKSLIYAASSLQSGVPPKFSGSGSGTDFTLTISSLQPEDFATYYCLHYNSYPWTFGQGTKVEIK , please? 0.9
